test: Quantitative High-Throughput drug screen in 47 multiple myeloma cell lines against the NCATS MIPE library collection: KMS20_JCRB cell viability assay (AID 1918973); details: CellTiter-Glo ATP, 48 h; series mostly up to 45.8 µM; note: nearly all actives have a fitted effect of over 45% in size
Records with an inconclusive call do not appear. Active and inactive are the calls of the source. Calls come from the whole dose curve; as a rule, active = well fitted cell-killing curve with a large enough effect; inconclusive = small, poorly fitted or top-dose-only effect, or effect the other way; inactive = no such curve, though single readings can be large or run the other way.
Returns: one label drawn from yes = active, no = inactive

compound: CCOCC(O)COc1ccc(NC(=O)CC[S+](C)C)cc1 (stereo not given)
classification: no

Could you please tell me the result logged for NC1(c2ccc(-c3nc4ccn5c(=O)[nH]nc5c4cc3-c3ccccc3)cc2)CCC1 in this assay?
yes

Same read-out for CC(C)(C#N)c1cc(Cn2cncn2)cc(C(C)(C)C#N)c1 ?
no

Now consider Oc1c(Cl)cc(Cl)c2cccnc12 .
yes

NC(=O)c1cccnc1 ?
no

Next entry: CCCCCCNC(=O)n1cc(F)c(=O)[nH]c1=O
no

---

experiment: Cellular Toxicity (caspase-3) Jurkat (AID 655); conditions: Jurkat caspase-3 activation, luminescence, DMSO = 0%, tamoxifen = 100%; series mostly up to 92.2 µM;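 note: cells exposed to compound for 16 h at 37 °C before reading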
Records with an inconclusive call do not appear. Activity calls are given as the source filed them. Calls come from the whole dose curve; as a rule, active = well fitted activation curve with a large enough effect; inconclusive = small, poorly fitted or top-dose-only effect; inactive = flat fitted curve, though single readings scatter.
measurement_name: outcome

record_smiles: O=C(N[C@H](CO)[C@H](O)c1ccc([N+](=O)[O-])cc1)C(Cl)Cl
outcome: inactive
//
record_smiles: Cc1noc(NS(=O)(=O)c2ccc(N)cc2)c1C
outcome: inactive
//
record_smiles: C[C@]12C=CC(=O)C=C1CC[C@@H]1[C@@H]2C(=O)C[C@@]2(C)[C@H]1CC[C@]2(O)C(=O)CO
outcome: inactive
//
record_smiles: CC(=O)[C@H]1CC[C@H]2[C@@H]3CCC4=CC(=O)CC[C@]4(C)[C@H]3CC[C@]12C
outcome: inactive
//
record_smiles: CC(=O)Oc1ccccc1C(=O)Nc1ncc([N+](=O)[O-])s1
outcome: inactive
//
record_smiles: N=C(N)c1ccc(OCCCCCOc2ccc(C(=N)N)cc2)cc1
outcome: inactive
//
record_smiles: COc1ccc2cc3[n+](cc2c1OC)CCc1cc2c(cc1-3)OCO2
outcome: inactive
//
record_smiles: O=C(O)c1cc(=O)[nH]c(=O)[nH]1
outcome: inactive
//
record_smiles: CC1=NN(c2ccccc2)C(=O)C1
outcome: inactive

Okay, now this compound:
Reported outcome, compound Cc1ncc([N+](=O)[O-])n1CCO : ____
inactive

---

assay: Quantitative High-Throughput drug screen in 47 multiple myeloma cell lines against the NCATS MIPE library collection: KMS26_JCRB cell viability assay (AID 1918975); settings: KMS26 myeloma cells viability, CellTiter-Glo ATP, 48 h; series mostly up to 45.8 µM; note: nearly all actives have a fitted effect of over 45% in size
Records with an inconclusive call do not appear. Active and inactive are the calls of the source. The call rests on the fitted dose curve; in most records, active means well fitted cell-killing curve with a large enough effect; inconclusive means small, poorly fitted or top-dose-only effect, or effect the other way; inactive means no such curve, though single readings can be large or run the other way.
Outcome (select one): yes (1) (active), no (0) (inactive)

Some entries whose results are on file:
compound: S=P(N1CC1)(N1CC1)N1CC1
classification: no (0)
--
compound: Cc1ccc(S(=O)(=O)N[C@@H](Cc2ccccc2)C(=O)CCl)cc1
classification: yes (1)
--
compound: Nc1ccc(S(=O)(=O)Nc2ccccn2)cc1
classification: no (0)
--
compound: Nc1nc(N)c2nc(CNc3ccc(C(=O)NC(CCC(=O)O)C(=O)O)cc3)cnc2n1 (stereo unspecified)
classification: yes (1)
--
compound: CN(C)CCc1c[nH]c2ccc(C[C@H]3COC(=O)N3)cc12
classification: no (0)
--
compound: N[C@@H](C(=O)N[C@@H]1C(=O)N2C(C(=O)O)=C(Cl)CS[C@H]12)c1ccccc1
classification: no (0)
--
compound: NC1(c2ccc(-c3nc4ccn5c(=O)[nH]nc5c4cc3-c3ccccc3)cc2)CCC1
classification: yes (1)
--
compound: O=C(N[C@H](CO)[C@H](O)c1ccc([N+](=O)[O-])cc1)C(Cl)Cl
classification: no (0)
--
compound: C1CCC(C(CC2CCCCN2)C2CCCCC2)CC1 (stereo unspecified)
classification: yes (1)
--
compound: COC(=O)Nc1nc2ccc(S(=O)c3ccccc3)cc2[nH]1 (stereo unspecified)
classification: no (0)

Here's the next entry for you.
Could you please tell me the result logged for COc1ccc(-c2ccc3cc(C(=O)O)ccc3c2)cc1C12CC3CC(CC(C3)C1)C2 in this assay?
no (0)

---

assay: Drug repurposing screens with cells derived from glioblastoma tumor samples (AID 1345199); conditions: GBM patient neurospheres viability, ATP luminescence, 48 h; at 20 µM (top of the series); tumour line C; note: % is set by controls: 0 for no effect and ±100 for the full control effect; nearly all actives have a fitted effect of over 40% in size
Inconclusive results are not listed.
For each of the compounds below, state its activity, negative = cell killing.
Numbers only, in %.

record_smiles: CC(C)(C)NC(=O)[C@H]1CC[C@H]2[C@@H]3CC[C@H]4NC(=O)C=C[C@]4(C)[C@H]3CC[C@]12C
readout_number: -3.62
//
record_smiles: C[C@@H]1C[C@H]2[C@@H]3CCC4=CC(=O)C=C[C@]4(C)[C@@]3(Cl)[C@@H](O)C[C@]2(C)[C@@]1(OC(=O)c1ccco1)C(=O)CCl
readout_number: 13.7
//
record_smiles: Cc1cccc(N(C)C(=S)Oc2ccc3ccccc3c2)c1
readout_number: -6.63

Now let's try a different one.
Any idea what activity, negative = cell killing was measured for CO[C@@H]1[C@@H](OC(N)=O)[C@@H](O)[C@H](Oc2ccc3c(O)c(NC(=O)c4ccc(O)c(CC=C(C)C)c4)c(=O)oc3c2C)OC1(C)C ?
-4.06

---

I'd be grateful if you could share measured z-score for these entries.
assay: qHTS for identification of novel therapeutic agents for treatment of microphthalmiaassociated transcription factor (MiT) renal cell carcinoma (RCC) (AID 1963991); details: TFE3-RCC viability, CellTiter-Glo, 48 h; measured here: UOK145 Z-AUC; stronger effect = lower value;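 note: curves scaled with 100% = DMSO viability and 0% = empty wells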
Results filed as inconclusive are left out.
Answers are plain numbers.

Worked set:
compound: CC1CC2C3CCC4=CC(=O)C=C[C@]4(C)[C@@]3(F)[C@@H](O)C[C@]2(C)[C@@]1(O)C(=O)CO (stereo not given in full)
measurement_name: z-score
readout_number: 0.527
--
compound: COC(c1ccccc1)(c1ccccc1)[C@H](Oc1nc(C)cc(C)n1)C(=O)O
measurement_name: z-score
readout_number: 0.706
--
compound: OC(Cn1cncn1)(Cn1cncn1)c1ccc(F)cc1F
measurement_name: z-score
readout_number: -0.107
--
compound: COc1nc(N)nc2c1ncn2[C@@H]1O[C@H](CO)[C@@H](O)[C@@H]1O
measurement_name: z-score
readout_number: 0.757

Field: next compound
Sample O=c1oc2c(O)c(O)cc3c(=O)oc4c(O)c(O)cc1c4c23 — what was its z-score?
0.717

---

test system: PC26; assay: qHTS profiling for inhibitors of Plasmodium falciparum proliferation (AID 504749); note: nearly all actives have a fitted effect of over 60% in size; settings: P. falciparum in erythrocytes, SYBR Green DNA, 72 h; series mostly up to 28.7 µM
Records with an inconclusive call do not appear. Active and inactive are the calls of the source. Calls come from the whole dose curve; as a rule, active = well fitted inhibition curve with a large enough effect; inconclusive = small, poorly fitted or top-dose-only effect; inactive = flat fitted curve, though single readings scatter.
Pick from active, inactive when you respond.

Example entries begin here.
molecule: Nc1ccc(S(=O)(=O)Nc2ccccn2)cc1
classification: inactive
--
molecule: CNNCc1ccc(C(=O)NC(C)C)cc1
classification: inactive
--
molecule: Cn1nnc2c(C(N)=O)ncn2c1=O
classification: inactive
--
molecule: S=P(N1CC1)(N1CC1)N1CC1
classification: inactive
--
molecule: CNC(=O)c1cc(Oc2ccc(NC(=O)Nc3ccc(Cl)c(C(F)(F)F)c3)cc2)ccn1
classification: active

Test call, this molecule: COc1ccc(-c2ccc3cc(C(=O)O)ccc3c2)cc1C12CC3CC(CC(C3)C1)C2
inactive

Repeat for the following molecule: NC(N)=NC(N)=NCCc1ccccc1
inactive

For C#CCN[C@@H]1CCc2ccccc21 then?
inactive

Again, but for Cc1ccnc2c1NC(=O)c1cccnc1N2C1CC1
inactive

And the next one, Nc1[nH]c(=O)ncc1F ?
inactive

And then CCN(C)C(=O)Oc1cccc([C@H](C)N(C)C)c1 , what is it?
inactive

Now the same for CCCN[C@H]1CCc2nc(N)sc2C1
inactive

One more molecule: CCc1cc(C(N)=S)ccn1
inactive

Also, CN(CCOc1ccc(CC2SC(=O)NC2=O)cc1)c1ccccn1 (stereo not given) please.
inactive

Now this one: O=S(=O)(O)CCS
inactive

// next record CN(C)c1ccc(C(=C2C=CC(=[N+](C)C)C=C2)c2ccc(N(C)C)cc2)cc1
active

Note, next up: COc1c(N2CCNC(C)C2)c(F)cc2c(=O)c(C(=O)O)cn(C3CC3)c12 (stereo not given)
inactive

Please answer likewise for C[C@@H](NCCCc1cccc(C(F)(F)F)c1)c1cccc2ccccc12
active

What about this molecule? CCOCC(O)COc1ccc(NC(=O)CC[S+](C)C)cc1 (stereo not given)
inactive

Now give it for CN1CCN(c2c(F)cc3c(=O)c(C(=O)O)cn4c3c2OCN4C)CC1 too.
inactive

Another molecule to check: CC(C)(Sc1cc(C(C)(C)C)c(O)c(C(C)(C)C)c1)Sc1cc(C(C)(C)C)c(O)c(C(C)(C)C)c1
inactive

Moving on to CC(C)(C#N)c1cc(Cn2cncn2)cc(C(C)(C)C#N)c1
inactive

Consider next the molecule CC(C)Cn1cnc2c(N)nc3ccccc3c21 in the same way.
inactive

One more molecule: N[C@@H](C(=O)N[C@@H]1C(=O)N2C(C(=O)O)=C(Cl)CS[C@H]12)c1ccccc1
inactive

Another molecule to check: N=C(N)c1ccc(OCCCCCOc2ccc(C(=N)N)cc2)cc1
active
